Kindly state N (Hill coefficient) for each of the entries shown.
# system.under.test: cell-free Hb (Homo sapiens, UniProt P68871+P69905)
# Construct: Hemoglobin was prepared from centrifuging human blood; from tissue; host or cells: human blood (red cells lysed, Hb purified on DEAE sephacel)
# assay.procedure: OEC study with normal cell-free Hb
# Format: biochemical
# test.parameters: cell-free Hb 12 mg/mL, 2 mM compound, n = 1
Just the number, please.

Q. # return recorded N (Hill coefficient) for entry `COc1ccc(C=O)c(OCc2cccc(CO)n2)c1`
A. 1.7

Q. # return recorded N (Hill coefficient) for entry `COc1ccc(OCc2cccc(CO)n2)c(C=O)c1`
A. 1.8

Q. # return recorded N (Hill coefficient) for entry O=Cc1ccc(CO)o1 [Compound 5HMF, 5-(hydroxymethyl) furfural, reference compound]
A. 2.0

Q. # return recorded N (Hill coefficient) for entry `COc1ccc(C=O)cc1OCc1cccc(CO)n1`
A. 1.9

Q. # return recorded N (Hill coefficient) for entry `O=Cc1ccc(CO[N+](=O)[O-])o1`
A. 2.0

Q. # return recorded N (Hill coefficient) for entry `COc1ccc(OCc2cccc(CO[N+](=O)[O-])n2)c(C=O)c1`
A. 2.1

* * *

# Tested on: SS cells
# assay.procedure: In vitro RBC anti-sickling (morphological) study with SS cells
# Format: cell-based, human
# test.parameters: Homo sapiens; 2.0 mM; SS cells, 1 h air then 4% O2, 37° C., 5 h; read-out: Inhibition of sickled cells
quantity.kind: inhibition at 2000 µM (%)
# value in %; strip the unit string

Q. # return recorded inhibition at 2000 µM for entry COc1ccc(OCc2cccc(CO)n2)c(C=O)c1 [TD-7]
A. 100

Q. # return recorded inhibition at 2000 µM for entry COc1ccc(C=O)c(OCc2cccc(CO)n2)c1 [TD-9]
A. 57

Q. # return recorded inhibition at 2000 µM for entry COc1ccc(C=O)cc1OCc1cccc(CO)n1 [TD-8]
A. 38

Q. # return recorded inhibition at 2000 µM for entry O=Cc1ccc(CO)o1 [Compound 5HMF, 5-(hydroxymethyl) furfural, reference compound]
A. 35

Q. # return recorded inhibition at 2000 µM for entry COc1ccc(OCc2cccc(CO[N+](=O)[O-])n2)c(C=O)c1 [TD-7-1]
A. 100

* * *

# system.under.test: Hb (Homo sapiens, UniProt P68871+P69905)
# Construct: normal whole blood (AA); from tissue; host or cells: normal whole blood (AA), red blood cells
# Sequence (P69905 2-142 limits assumed): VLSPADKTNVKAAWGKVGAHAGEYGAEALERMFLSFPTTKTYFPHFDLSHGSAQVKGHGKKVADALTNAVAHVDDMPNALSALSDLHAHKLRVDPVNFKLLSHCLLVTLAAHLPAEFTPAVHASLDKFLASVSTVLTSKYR
# Sequence (P68871 2-147 limits assumed): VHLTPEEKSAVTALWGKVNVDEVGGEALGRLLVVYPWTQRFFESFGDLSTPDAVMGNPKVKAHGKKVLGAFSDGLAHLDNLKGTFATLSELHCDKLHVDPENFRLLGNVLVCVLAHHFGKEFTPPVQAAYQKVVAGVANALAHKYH
# assay.procedure: Oxygen equilibrium curve (OEC) study with normal whole blood (AA)
# Assay type: cell-based
# test.parameters: 2 mM compound, 1.5 h incubation, 37° C.
quantity.kind: P50

Q. # return recorded P50 for entry `COc1ccc(C=O)cc1OCc1cccc(CO[N+](=O)[O-])n1`
A. 30.8^d† mmHg

Q. # return recorded P50 for entry O=Cc1ccc(CO)o1 [Compound 5HMF, 5-(hydroxymethyl) furfural, reference compound]
A. 20.2 ± 2.0^c† mmHg

Q. # return recorded P50 for entry `COc1ccc(C=O)c(OCc2cccc(CO)n2)c1`
A. 21.1 ± 1.2^c† mmHg

Q. # return recorded P50 for entry `COc1ccc(OCc2cccc(CO[N+](=O)[O-])n2)c(C=O)c1`
A. 23.4 ± 1.6^c† mmHg

Q. # return recorded P50 for entry `COc1ccc(OCc2cccc(CO)n2)c(C=O)c1`
A. 14.3 ± 4.3^c† mmHg
